- Test system: EKVX NSCLC
- assayInfo: NCI-60 one-dose screen, 48 h (100 = growth as untreated, 0 = no growth, -100 = all killed)
- conditionsUsed: 10 µM unless noted
About 83,000 compounds went through this panel and 20% of them were active in at least one assay; those are over-represented in the sample as a whole.
reportedProperty: growth (%)
Expressed in %, but write only the number.

// lookup growth for Cc1cc(O)c(C2=NN(c3ccc(S(N)(=O)=O)cc3)C(/C=C/c3ccccc3)C2)cc1Cl (centres undefined)
68.8

Report growth for CC1=C(C)C(=O)C(Nc2cccc(C(=O)OC(C)(C)C)c2)=C(Br)C1=O please.
103

So what does the record say about growth for CCOC(=O)C1=C(N)Oc2c(sc3c(C)cccc23)C1c1ccc(Cl)cc1 (centres undefined) ?
48.3

growth for Cc1cc(=O)oc2cc(OC(=O)N3CCN(C)CC3)ccc12 ?
99.2

Could you share which growth value was measured for O=[N+]([O-])c1ccccc1NCSc1ccc(Cl)cc1 ?
104

Which measured growth value corresponds to O=C(CCOCCNC(=O)COc1ccc2c(c1)OCC(c1ccc(F)cc1)C2=O)NCCCC(O)(P(=O)(O)O)P(=O)(O)O (centres undefined) ?
94.5

# growth lookup, item O=C(Nc1ccc(Cl)cc1F)c1ccccc1O
66.2

Tell me the measured growth of O=C1COCCN1c1ccc(NCc2cn(C(=O)c3ccc(Cl)cc3)c3ccccc23)cc1 , please.
83.9

I am curious: what growth value has been reported for COc1ccc(-c2nc(NN)c3c(C)nn(-c4ccc(F)cc4)c3n2)cc1 ?
59.4

Which growth is listed for COc1cc2cc(Oc3ccc(NC(=O)Nc4cccc(C(F)(F)F)c4)cc3)c(C)nc2cc1OCCN1CCOCC1 ?
25.4

Fill in the blank: the reported growth of N#Cc1c(Nc2cccc(Cl)c2)sc(C(=O)c2cc3cc(Cl)ccc3o2)c1N is ____.
158

Return reported growth; argument: Cc1ccc(NC2=C(Cl)C(=O)c3nc(C)ccc3C2=O)cc1
58.6

Item Cc1nn(-c2ccccc2)c2c1N=c1s/c(=C\c3ccc(C(F)(F)F)cc3)c(=O)n1CN2 has what recorded growth?
59.3

Which measured growth value corresponds to COc1cc(/C=C/C(=O)/C=C/c2cc(OC)c3c(c2OC)OCO3)c(OC)c2c1OCO2 ?
87.7

Given the entry O=C(/C=C/c1sc(Cl)nc1Cl)c1ccc(Br)cc1 , report its measured growth.
96.5

Recorded growth for Cn1cc(-c2ccc3cc(-c4ccc(CC(=O)Nc5cc(C(C)(C)C)nn5C)cc4)cnc3c2)cn1 , please?
23.5

Using the record for CCOC(=O)Nc1ccc(C(=O)/C=C/c2ccccc2)cc1 , report its growth.
105

Recorded growth for CC1Cc2c(ncn3c(-c4ccc(F)cc4)nnc23)N(C)c2ccccc21 (centres undefined) , please?
32.8

# get_value(readout='growth', item= Fc1cc(-c2nnc3n2NC(=Nc2ccc(Cl)cc2)CS3)c(Cl)cc1Cl )
95.2

Given CC(=O)OC[C@H]1OC(Sc2sc(C(=O)c3ccc(Br)cc3)c(N)c2-c2nc3ccccc3s2)[C@H](OC(C)=O)[C@@H](OC(C)=O)[C@H]1OC(C)=O (some centres undefined) , state its recorded growth.
80.5

Which growth is listed for COc1ccc2c(c1)C(C)Cc1c(ncnc1-n1c(C)nc3ccccc31)N2C (centres undefined) ?
43.4

Dear colleague, I am looking for the recorded growth of the following molecule: COc1cc(C(=O)c2cnc(-c3c[nH]c4cccc(C)c34)[nH]2)cc(OC)c1OC
29.7

Please look up its growth: N[C@@H](Cc1ccccc1)[C@@H](O)C(=O)NCc1ccc(F)cc1
103

Quick one: growth for COc1cccc(-c2nn(-c3ccccc3)cc2-c2ccnc(N3CCOCC3)c2)c1 ?
82.2

Fill blank: measured growth of the molecule CCOC(=O)c1cn2ncnc(Oc3ccc(NC(=O)NCCN(CC)CC)c(Cl)c3)c2c1C is ____.
77.2

Any idea what growth was measured for O=C(Nn1c(NCC(=O)N2c3ccccc3Sc3ccccc32)nnc1-c1ccc(O)cc1)c1ccccc1 ?
103

I am curious: what growth value has been reported for CCOC(=O)c1[nH]c(C)c(C(=O)OCc2ccccc2C#N)c1C ?
114

// query growth value for entry Cc1c(C(=O)/C=C/Nc2c(Cl)cc(S(N)(=O)=O)cc2Cl)sc2nc3ccccc3n12
106

I'd like to know its growth. The molecule in question is Cn1cc(-c2cc3ncnc(Nc4ccc(CC(=O)Nc5cc(C(C)(C)C)on5)cc4)c3s2)cn1
60.2

Which growth reading was recorded for the molecule CCCCOc1nc2ccc(OC)cc2cc1-c1cc(-c2ccc(Cl)cc2)nc(-c2ccc(Cl)cc2)c1 ?
98.2

Return reported growth; argument: Cc1ccc(S(=O)(=O)N/N=C/C2(c3ccccc3)CC2)cc1
99

GET /values?readout=growth&item= C=C1C(=O)O[C@H]2[C@H]1CC/C(COC(=O)CCC(=O)NCCOCCOCC(=O)Nc1ccc(OC)c(C(N)=O)c1O)=C\CC[C@@]1(C)O[C@@H]21
94.4

# growth lookup, item Cc1nc2ccccc2c(/C=C/c2ccc(Cl)cc2)c1C(=O)/C=C/c1cccs1
80.9

Item under review: Cc1ccc(C(=O)NN2C(=O)CSC2c2ccc(Cl)cc2)cn1 (centres undefined) . Reported growth?
110

Fill in the blank: the reported growth of Fc1cc(-c2nnc3sc(-c4ccc(Cl)cc4Cl)nn23)c(Cl)cc1Cl is ____.
73.3

Please look up its growth: C=C(C)C1CCC2(C)OC2C1 (centres undefined)
87.4

Reported growth, molecule CCCCCCn1c(-c2ccc(C(=O)O/N=C(\N)c3ccc(OC)cc3)cc2)nc(-c2ccccc2)c1-c1ccccc1 : ____
-75.6

Consider the molecule COc1cc(OCc2cccc(-c3ccc(C(O)c4nccs4)cc3)c2C)cc(OC)c1CNCCNC(C)=O (centres undefined) and give its measured growth.
97

Please report the recorded growth for Nc1ccc(Sc2ccc([N+](=O)[O-])c3nonc23)cc1 .
92.5
